# assay_text: Inhibition of lanosterol 14-alpha-demethylase in hamster hepatic microsomes
measurement_type: Ki (nM)
Give bare numbers, in nM.

Exam item: # query: Ki of entry CC(=O)N1CCN(c2ccc(OC[C@@H]3CO[C@@](Cn4ccnc4)(c4ccc(Cl)cc4Cl)O3)cc2)CC1
Marked response: 25

All values here come from BindingDB's records for doi:10.1021/jm00067a022.
